Data origin, for the record: patent US20210238260

Target: Factor X (FX), P00742
Sequence (P00742 whole entry, looked up): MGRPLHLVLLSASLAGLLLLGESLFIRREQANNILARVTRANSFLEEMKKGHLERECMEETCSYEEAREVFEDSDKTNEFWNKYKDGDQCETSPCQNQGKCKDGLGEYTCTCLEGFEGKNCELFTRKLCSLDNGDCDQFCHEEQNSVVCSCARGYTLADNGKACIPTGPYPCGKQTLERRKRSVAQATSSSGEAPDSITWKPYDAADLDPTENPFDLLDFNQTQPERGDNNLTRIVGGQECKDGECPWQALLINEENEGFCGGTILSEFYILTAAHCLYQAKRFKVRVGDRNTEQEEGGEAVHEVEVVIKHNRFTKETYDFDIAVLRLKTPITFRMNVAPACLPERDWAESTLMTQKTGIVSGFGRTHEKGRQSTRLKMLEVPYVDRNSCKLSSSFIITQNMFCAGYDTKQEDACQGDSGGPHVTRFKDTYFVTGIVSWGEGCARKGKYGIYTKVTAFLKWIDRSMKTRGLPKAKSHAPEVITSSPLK
Property Measured: kcat (s⁻¹)
Entry rule: numbers only, all in s⁻¹.

FIXa-K247N/N249S/R318Y/R338E/E410N (protein) chain 1: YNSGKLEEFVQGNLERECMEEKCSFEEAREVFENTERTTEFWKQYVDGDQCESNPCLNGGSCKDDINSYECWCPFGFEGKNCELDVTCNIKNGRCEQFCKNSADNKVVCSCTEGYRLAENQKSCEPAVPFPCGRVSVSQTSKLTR chain 2: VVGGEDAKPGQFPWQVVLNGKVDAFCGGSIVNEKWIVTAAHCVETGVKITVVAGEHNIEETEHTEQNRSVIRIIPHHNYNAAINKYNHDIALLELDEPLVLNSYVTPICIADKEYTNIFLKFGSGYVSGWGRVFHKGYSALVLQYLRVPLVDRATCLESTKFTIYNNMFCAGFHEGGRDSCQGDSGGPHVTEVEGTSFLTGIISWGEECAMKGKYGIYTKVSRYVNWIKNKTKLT = 3.8

Now examine the next entry.
Problem: Kindly indicate its recorded kcat. Item: FIXa-D203N/F205T/E410N (protein) chain 1: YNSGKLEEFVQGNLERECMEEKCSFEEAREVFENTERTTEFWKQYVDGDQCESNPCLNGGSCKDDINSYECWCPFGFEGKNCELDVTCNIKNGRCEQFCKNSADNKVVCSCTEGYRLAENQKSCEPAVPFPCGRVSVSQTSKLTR chain 2: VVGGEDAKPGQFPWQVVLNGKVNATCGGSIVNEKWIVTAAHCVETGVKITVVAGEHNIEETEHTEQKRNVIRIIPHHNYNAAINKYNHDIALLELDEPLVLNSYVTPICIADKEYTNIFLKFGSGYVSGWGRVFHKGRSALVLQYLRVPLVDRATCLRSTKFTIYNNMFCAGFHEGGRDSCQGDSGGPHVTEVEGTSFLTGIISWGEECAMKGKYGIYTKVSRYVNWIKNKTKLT
Result: 1.7
